ASSAYED SYSTEM: Luciferin 4-monooxygenase (Photinus pyralis) (UniProt P08659)
Sequence (P08659 whole entry, looked up): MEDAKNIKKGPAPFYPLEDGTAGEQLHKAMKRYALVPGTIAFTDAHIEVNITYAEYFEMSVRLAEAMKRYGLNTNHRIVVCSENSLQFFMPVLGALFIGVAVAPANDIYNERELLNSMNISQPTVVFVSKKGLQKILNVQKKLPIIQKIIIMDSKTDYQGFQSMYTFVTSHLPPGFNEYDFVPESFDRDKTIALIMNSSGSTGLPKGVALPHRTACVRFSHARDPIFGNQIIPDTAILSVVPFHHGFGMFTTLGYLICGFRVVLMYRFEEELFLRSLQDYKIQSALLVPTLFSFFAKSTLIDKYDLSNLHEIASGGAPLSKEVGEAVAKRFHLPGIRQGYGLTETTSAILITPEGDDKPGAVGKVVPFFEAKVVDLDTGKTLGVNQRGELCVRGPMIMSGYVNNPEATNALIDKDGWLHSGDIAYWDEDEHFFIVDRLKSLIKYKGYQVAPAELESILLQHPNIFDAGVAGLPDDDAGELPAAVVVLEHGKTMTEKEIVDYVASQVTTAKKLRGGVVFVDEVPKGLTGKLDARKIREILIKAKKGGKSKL
PROTOCOL SUMMARY: FLuc inhibitory activity for the follow-up compounds in a cell-based translational read-through assay (72 hour incubation)
RUN CONDITIONS: GripTite 293 FLucUGA read-through, luminescence; series mostly up to 38.3 µM
Records with an inconclusive call do not appear. Calls of active or inactive are those of the source. The call rests on the fitted dose curve; in most records, active means well fitted activation curve with a large enough effect; inconclusive means small, poorly fitted or top-dose-only effect; inactive means flat fitted curve, though single readings scatter.
Result category, one only: True for active, False for inactive

COc1ccc2nc(NC(=O)c3ccc([N+](=O)[O-])o3)sc2c1 ... True
Nc1ccc2nc(-c3ccccc3)sc2c1 ... True
CC(C)c1ccc(C(=O)Nc2ccc(-c3nc4ccccc4s3)c(Cl)c2)cc1 ... False
CCOc1ccc2nc(NC(=O)c3ccccc3)sc2c1 ... True
Cc1c(NS(C)(=O)=O)cccc1-c1nc2ccccc2s1 ... False
COc1ccc2nc(NC(=O)c3ccco3)sc2c1 ... True
COc1ccc(C(=O)Nc2ccccc2-c2nc3ccccc3s2)c(OC)c1 ... False
O=C(Nc1ccccc1C(=O)O)c1ccc(NC(=O)C2CC2)cc1 ... False

INPUT: Tell me the recorded outcome of this test for Cc1ccc(S(=O)(=O)N2CCN(C(=O)c3ccccc3-c3nc4ccccc4s3)CC2)c(C)c1 .
OUTPUT: False

INPUT: Tell me the recorded outcome of this test for COc1ccc(-c2cccc(C(=O)Nc3cccc(C(=O)O)c3)c2)cc1 .
OUTPUT: True

INPUT: Tell me the recorded outcome of this test for Cc1ccc2sc(-c3ccc(N)cc3)nc2c1 .
OUTPUT: True

INPUT: Tell me the recorded outcome of this test for O=C(O)c1ccc(NC(=O)c2cccc(C(=O)Nc3ccc(C(=O)O)cc3)c2)cc1 .
OUTPUT: False

INPUT: Tell me the recorded outcome of this test for Cc1ccc(C(=O)Nc2cccc(C(=O)O)c2)cc1S(=O)(=O)N1CCCCC1 .
OUTPUT: True

INPUT: Tell me the recorded outcome of this test for O=C(Nc1ccccc1C(=O)O)c1cccc(S(=O)(=O)Nc2ccc(Br)cc2)c1 .
OUTPUT: False

INPUT: Tell me the recorded outcome of this test for Cc1cccc(C(=O)Nc2ccccc2C(=O)Nc2ccc(C(=O)O)cc2)c1 .
OUTPUT: False

INPUT: Tell me the recorded outcome of this test for COc1ccccc1C(=O)Nc1ccc(C(=O)O)cc1 .
OUTPUT: False

INPUT: Tell me the recorded outcome of this test for Cc1ccc(C(=O)Nc2cccc(C(=O)O)c2)cc1S(=O)(=O)N1CCOCC1 .
OUTPUT: True

INPUT: Tell me the recorded outcome of this test for O=C(Nc1ccc(-c2nc3ccccc3s2)cc1)C1=COCCO1 .
OUTPUT: True
